test_target: T1, human γc on cells (KHYG-1, Ramos, HPB-ALL, Jurkat, PBMC) (human) (UniProt P31785)
T1 sequence (looked up): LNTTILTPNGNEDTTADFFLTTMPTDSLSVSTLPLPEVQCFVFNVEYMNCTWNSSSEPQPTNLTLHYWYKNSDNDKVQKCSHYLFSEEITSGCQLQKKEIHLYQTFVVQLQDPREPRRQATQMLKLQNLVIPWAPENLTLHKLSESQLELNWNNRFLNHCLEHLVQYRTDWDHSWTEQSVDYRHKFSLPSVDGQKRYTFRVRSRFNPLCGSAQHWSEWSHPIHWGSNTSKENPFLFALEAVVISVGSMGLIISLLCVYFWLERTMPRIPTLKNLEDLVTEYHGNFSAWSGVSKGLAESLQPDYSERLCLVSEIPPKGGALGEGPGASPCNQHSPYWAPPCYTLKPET
experimental_details: cell-based or functional assay
measured_quantity: p-STAT3 inhibition (%), IL-21 induced, Ramos B cells, flow cytometry
Please provide the amount together with its unit, number first.

Query string: # query: p-STAT3 inhibition (%), IL-21 induced, Ramos B cells, flow cytometry of entry SM-05J anti-γc ScFv (scFv, part only; not given: linker and E-tag, not shown: small tags and cut ends) scFv (part 1 of 2), part: EVQLQQSGPELVKPGASVKISCKTSGYTFTEYTMHWVKQSHGKSLEWIGGIDPYNGGITYNQRFKGKATLTVDKSSSTAYMELRSLTSEDSAVYYCARRRLYYGYALDYWGQGTSVTVSS scFv (part 2 of 2), part: DVVMTQTPLSLPVSLGDQASISCRSSQSIVHSNGNTYLEWYLQKPGQSPKLLIYKVSNRFSGVPDRFSGSGSGTDFTLKISRVEAEDLGVYYCFQGSHVPFTFGSGTKLEIKR
Result string: 75.8%

Query string: # query: p-STAT3 inhibition (%), IL-21 induced, Ramos B cells, flow cytometry of entry SM-05C anti-γc ScFv (scFv, part only; not given: linker and E-tag, not shown: small tags and cut ends) scFv (part 1 of 2), part: QVQLQQSGPELVKPGASVKIFCKTSGYTFTEYTMHWVKQSHGESLEWIGGIDPNTGGATYNQKFKGKATLTADKSSSTAYMELRSLTSEDSAVYYCARRRRYYGYAMDYWGQGTSVTVSS scFv (part 2 of 2), part: DVVMTQTPLSLPVSLGDQASISCRSSQSLVHSNGNTYLHWYLQKPGQSPKLLIYKVSNRFSGVPDRFSGSGSGTDFTLKISRVEAEDLGIYYCFQDSHVPFTFGSGTKLEIKR
Result string: 29.1%

Query string: # query: p-STAT3 inhibition (%), IL-21 induced, Ramos B cells, flow cytometry of entry SM-05K anti-γc ScFv (scFv, part only; not given: linker and E-tag, not shown: small tags and cut ends) scFv (part 1 of 2), part: EVQLLESGPELVKPGASVKISCKTSGYSFTDYFMNWVKQSHGESLEWIGGIDPNTGGVTYNQKFKGKATLTVDKSASTAYMELRSLTSEDSAVYYCARRRRYYGYAMDYWGQGTSVTVSS scFv (part 2 of 2), part: DVLMTQTPLSLPVSLGDQASISCRSSQSIVHSNGNTYLEWYLQKPGQSPKLLIYKVSNRFSGVPDRFSGSGSGTDFTLKISRVEAEDLGVYFCSQSTHVPWTFGGGTKLEIKR
Result string: 90.8%
